- System: LAETG (Abz-LAETGK(Dnp)-CONH2)
- ASSAY: In vitro sortase kinetics HPLC assay, LAETG substrate
- Format: biochemical
- APPLIED_CONDITIONS: Example 5 variants; substrate 2A (LAETG); read-out: Avg KM
QUANTITY_MEASURED: Km (µM)

{"MOLECULE": "eSrtA(2A-9): P94R, S102C, A104H, E105D, K138P, K152I, N160K, K162H, T164N, D165A, K173E, I182V, K190E, T196S (protein) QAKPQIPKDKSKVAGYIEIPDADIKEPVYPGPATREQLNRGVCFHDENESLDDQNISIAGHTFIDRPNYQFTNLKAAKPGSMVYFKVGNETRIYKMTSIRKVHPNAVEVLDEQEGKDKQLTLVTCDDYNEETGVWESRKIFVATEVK", "QUANTITY_MEASURED": "Km", "REPORTED_RESULT": 265}
